# methodDescription: Intrinsic pKa and intrinsic solubility of ICPD47 from pKa shift (spectrophotometric and potentiometric titration, linked ionization-dissolution model)
# Assay type: physicochemical
# appliedConditions: pKa shift model, 25 °C; read-out: Intrinsic pKa (model estimate)
measuredParameter: pKa
Answers are plain numbers.

Enquiry: Tell me the measured pKa of CCOc1ccc(-c2snnc2-c2cc(Cl)c(O)cc2O)cc1 [ICPD47] , please.
Return: 6.85

====

# methodDescription: Intrinsic pKa and intrinsic solubility from the model applied to literature titration data (Bjerrum plots)
# Format: physicochemical
# appliedConditions: water, thermodynamic from solid; model fit to literature titration data (ref 5, 22, 23)
measuredParameter: solubility (µM)
Numbers only, in µM.

Enquiry: Tell me the measured solubility of `CN(C)CCCOc1nn(Cc2ccccc2)c2ccccc12` , please.
Return: 270
